Overview of reported glycan array binding signal (z-score) across a group of binders:
TEST SYSTEM: Neu5Ac(a2-8)Neu5Ac(a2-8)Neu5Ac(a2-3)Gal(b1-4)Glc
ASSAY COMMENT: glycan array binding signal (z-score within array); higher = stronger binding
MEASUREMENT CONDITIONS: glycan notation: IUPAC condensed, linker removed
The full list was thinned out, with the strongest signals kept by preference.
Give the figure by itself; no unit, no explanation.

Guide cases for glycan array binding signal (z-score), answers given:
[
  {
    "BINDER": "SfaEH (Escherichia coli), Q1RDG5 (protein) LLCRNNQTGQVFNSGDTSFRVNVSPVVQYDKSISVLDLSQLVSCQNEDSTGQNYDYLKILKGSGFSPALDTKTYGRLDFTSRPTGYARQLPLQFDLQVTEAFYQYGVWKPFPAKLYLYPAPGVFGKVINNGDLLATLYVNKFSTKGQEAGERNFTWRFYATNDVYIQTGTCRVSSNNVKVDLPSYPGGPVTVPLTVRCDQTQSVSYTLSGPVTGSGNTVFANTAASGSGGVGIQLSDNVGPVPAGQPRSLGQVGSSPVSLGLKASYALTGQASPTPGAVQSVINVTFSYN",
    "READOUT NAME": "glycan array binding signal (z-score)",
    "RECORDED NUMBER": 0.437
  },
  {
    "BINDER": "BC2L-A (Burkholderia cenocepacia), Q1BKJ8_BURCA (protein) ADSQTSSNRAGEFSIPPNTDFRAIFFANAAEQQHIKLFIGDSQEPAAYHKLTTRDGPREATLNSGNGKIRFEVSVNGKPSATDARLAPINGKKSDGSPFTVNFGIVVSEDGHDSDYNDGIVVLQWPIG",
    "READOUT NAME": "glycan array binding signal (z-score)",
    "RECORDED NUMBER": -0.253
  }
]

Read the next record carefully.
The binder Pwp3 (Candida glabrata) (protein) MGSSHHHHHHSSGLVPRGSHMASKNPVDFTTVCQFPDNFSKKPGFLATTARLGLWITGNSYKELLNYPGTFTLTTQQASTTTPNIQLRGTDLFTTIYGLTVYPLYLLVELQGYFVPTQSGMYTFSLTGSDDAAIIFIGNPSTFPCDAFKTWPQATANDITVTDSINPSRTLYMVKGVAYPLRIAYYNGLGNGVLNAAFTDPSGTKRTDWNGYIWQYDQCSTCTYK showed glycan array binding signal (z-score) equal to -1.21
